Target of assay: ER (Homo sapiens (Human))
Sequence (P03372 whole entry): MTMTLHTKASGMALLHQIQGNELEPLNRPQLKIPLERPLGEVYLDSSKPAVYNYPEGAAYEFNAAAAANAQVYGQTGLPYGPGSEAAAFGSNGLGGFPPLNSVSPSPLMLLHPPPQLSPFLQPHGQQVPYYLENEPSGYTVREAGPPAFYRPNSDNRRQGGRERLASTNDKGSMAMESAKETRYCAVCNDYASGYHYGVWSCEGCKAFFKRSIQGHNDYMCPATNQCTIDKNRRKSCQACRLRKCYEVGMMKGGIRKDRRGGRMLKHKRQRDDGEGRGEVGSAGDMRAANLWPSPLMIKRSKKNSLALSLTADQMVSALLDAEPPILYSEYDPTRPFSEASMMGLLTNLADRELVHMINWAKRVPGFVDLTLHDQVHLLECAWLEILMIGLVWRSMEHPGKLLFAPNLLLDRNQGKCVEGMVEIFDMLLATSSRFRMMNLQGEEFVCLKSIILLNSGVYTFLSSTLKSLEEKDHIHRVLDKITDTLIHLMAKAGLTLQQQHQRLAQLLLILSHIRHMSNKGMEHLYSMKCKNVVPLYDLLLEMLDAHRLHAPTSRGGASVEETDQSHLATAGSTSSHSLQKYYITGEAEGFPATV
Procedure details: In-cell western (ICW) ER degradation assay in T47D cells
Format: cell-based
Run conditions: ER degradation, 16 hrs
Where a name gives a salt, the structure may show the parent alone.
I'd be grateful if you could share measured DC50 for these entries.

Prompt line: Please look up its DC50: COc1cc(N2CCC(CN3CCN4c5cc6c(cc5OC[C@H]4C3)C(=O)N([C@@H]3CCC(=O)NC3=O)C6)CC2)ccc1[C@H]1c2ccc(O)cc2OC[C@H]1c1ccccc1 (single isomer, unassigned) [Compound A122]
Response line: < 1 nM

Prompt line: What does the record list as DC50 for O=C1CCC(NC(=O)c2ccc(C3CCN(CC4CCN(c5ccc([C@H]6c7ccc(O)cc7OC[C@H]6c6ccccc6)cc5F)CC4)CC3)cn2)C(=O)N1 (single isomer, unassigned) [Compound A101] ?
Response line: < 1 nM

Prompt line: What DC50 value was documented for this molecule, O=C1CC[C@@H](N2Cc3cc4c(cc3C2=O)OC[C@H]2CN(C[C@@H]3COC5(CCN(c6ccc([C@H]7c8ccc(O)cc8OC[C@H]7c7ccccc7)cc6F)CC5)C3)CCN42)C(=O)N1 [Compound A160] ?
Response line: 1 to 10 nM

Prompt line: Consider the molecule COc1cc(N2CCC3(CC2)CC(CN2CCC4(CC2)COc2c4ccc4c2CN(C2CCC(=O)NC2=O)C4=O)C3)c(F)cc1[C@H]1c2ccc(O)cc2OC[C@H]1c1ccccc1 (stereo partly shown) [Compound A131] and give its measured DC50.
Response line: 1 to 10 nM

Prompt line: Would you mind telling me what DC50 value was observed for O=C1CCC(NC(=O)c2ccc(N3CCC(CN4CCN(c5ccc([C@H]6c7ccc(O)cc7OC[C@H]6c6ccccc6)cc5)CC4)CC3)cn2)C(=O)N1 (single isomer, unassigned) [Compound A128] ?
Response line: < 1 nM

Prompt line: Request the reported DC50 associated with O=C1CC[C@H](N2Cc3cc4c(cc3C2)N2CCN(C[C@@H]3COC5(CCN(c6ccc([C@H]7c8ccc(O)cc8OC[C@H]7c7ccccc7)cc6F)CC5)C3)C[C@H]2CO4)C(=O)N1 [Compound A161]
Response line: < 1 nM

Prompt line: Entry O=C1CCC(Nc2ccc(N3CCN(CC4CC5(CCN(c6ccc([C@@H]7c8ccc(O)cc8OC[C@@H]7c7ccccc7)cc6)CC5)C4)CC3)c(F)c2)C(=O)N1 (stereo partly shown) [Compound A52] has what DC50?
Response line: < 1 nM

Prompt line: Which value of DC50 has been reported for COc1nc(C(=O)NC2CCC(=O)NC2=O)ccc1N1CCN(CC2CCC3(CC2)CN(c2ccc([C@@H]4c5ccc(O)cc5OC[C@@H]4c4ccccc4)cc2)C3)CC1 (single isomer, unassigned) [Compound A108] in the records?
Response line: < 1 nM

Prompt line: Requested read-out: DC50. Entry: O=C1CC[C@H](N2Cc3cc4c(cc3C2=O)OC[C@@H]2CN(CC3CC5(CCN(c6ccc([C@@H]7c8ccc(O)cc8OC[C@@H]7c7ccccc7)cc6)CC5)C3)CCN42)C(=O)N1 (single isomer, unassigned) [Compound A59]
Response line: < 1 nM

Prompt line: For O=C1CCC(Nc2ccc3c(c2)OC[C@H]2CN(CC4CCN(c5ccc([C@@H]6c7ccc(O)cc7OC[C@@H]6c6ccccc6)cc5)CC4)CCN32)C(=O)N1 (single isomer, unassigned) [Compound A91, hydrochloride] , what is its reported DC50?
Response line: 1 to 10 nM

Prompt line: Which value of DC50 has been reported for O=C1CC[C@H](NC(=O)c2ccc3c(n2)OC[C@H]2CN(CC4CCC5(CC4)CN(c4ccc([C@@H]6c7ccc(O)cc7OC[C@@H]6c6ccccc6)cc4)C5)CCN32)C(=O)N1 [Compound A142] in the records?
Response line: < 1 nM

Prompt line: Which value of DC50 has been reported for O=C1CCC(N2C(=O)c3cc4c(cc3C2=O)CN(C(=O)C2CCN(C3CCN(c5ccc([C@H]6c7ccc(O)cc7OC[C@H]6c6ccccc6)cc5)CC3)CC2)C4)C(=O)N1 (single isomer, unassigned) [Compound A78] in the records?
Response line: 10 to 100 nM

Prompt line: Field request: DC50 | item: O=C1CCC(NC(=O)c2ccc(N3CCN(CC4CCN(c5ccc([C@@H]6c7ccc(O)cc7OC[C@@H]6c6ccccc6)cc5)CC4)CC3)cn2)C(=O)N1 (single isomer, unassigned) [Compound A88]
Response line: 1 to 10 nM

Prompt line: Given the molecule O=C1CCC(N2C(=O)c3cc4c(cc3C2=O)CN(CC(=O)N2CCC3(CC2)CCN(c2ccc([C@H]5c6ccc(O)cc6OC[C@H]5c5ccccc5)cc2)CC3)C4)C(=O)N1 (stereo partly shown) [Compound A40] , what is its reported DC50?
Response line: < 1 nM

Prompt line: Name the recorded DC50 for O=C1CCC(N2Cc3c(ccc4c3OC[C@H]3CN(CC5CCN(c6ccc([C@@H]7c8ccc(O)cc8OC[C@@H]7c7ccccc7)cn6)CC5)CCN43)C2=O)C(=O)N1 (single isomer, unassigned) [Compound A69] .
Response line: 1 to 10 nM

Prompt line: Given the molecule COc1cc(N2CCC(CN3CCN(c4ccc(C(=O)NC5CCC(=O)NC5=O)nc4)CC3)CC2)c(F)cc1[C@H]1c2ccc(O)cc2OC[C@H]1c1ccccc1 (stereo partly shown) [Compound A109] , what is its reported DC50?
Response line: 1 to 10 nM

Prompt line: # query: DC50 of entry O=C1CCC(Nc2ccc(C3CCN(CC4CC5(CCN(c6ccc([C@@H]7c8ccc(O)cc8OC[C@@H]7c7ccccc7)cc6)CC5)C4)CC3)c(F)c2)C(=O)N1 (single isomer, unassigned) [Compound A75]
Response line: 1 to 10 nM

Prompt line: Fill in: DC50 of O=C1CC[C@@H](N2Cc3cc4c(cc3C2=O)OC[C@@H]2CN(CC3CC5(CCN(c6ccc([C@H]7c8ccc(O)cc8OC[C@H]7c7ccccc7)cc6)CC5)C3)CCN42)C(=O)N1 [Compound A96] is ___
Response line: < 1 nM

Prompt line: Endpoint output: DC50 of O=C1CC[C@@H](N2Cc3cc4c(cc3C2=O)CN(C(=O)CN2CCC3(CC2)CCN(c2ccc([C@H]5c6ccc(O)cc6OC[C@H]5c5ccccc5)cc2)CC3)C4)C(=O)N1 (single isomer, unassigned) [Compound A41] . Value?
Response line: < 1 nM
